# experimental system: ZRANB2 (UniProt O95218)
# Sequence (O95218 whole entry, looked up): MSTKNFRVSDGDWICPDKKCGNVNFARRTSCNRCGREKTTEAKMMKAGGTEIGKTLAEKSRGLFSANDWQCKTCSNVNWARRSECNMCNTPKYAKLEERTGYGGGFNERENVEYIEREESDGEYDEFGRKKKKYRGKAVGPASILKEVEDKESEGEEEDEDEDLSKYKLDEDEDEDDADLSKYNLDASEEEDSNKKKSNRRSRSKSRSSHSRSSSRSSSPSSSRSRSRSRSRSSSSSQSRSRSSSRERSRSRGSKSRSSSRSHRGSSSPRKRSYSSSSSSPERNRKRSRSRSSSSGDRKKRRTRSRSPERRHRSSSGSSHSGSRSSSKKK
# assay info: log2 fold change, soluble protein after heating vs DMSO (PISA); higher = thermal stabilisation; K562 cells, 10 uM, 30 min; active = over 0.2 and 3.5 SD of the protein, either way, in both replicates (recomputed)
Targets with a hit are over-represented here; the source holds about 7,900 in all. About 0.6% of all pairs of compound and target were hits.
observable: log2 fold change
Returns: the value as a bare number; no unit string appended.

Please give the measured log2 fold change for this compound: `CC[C@@H]1C(=O)N(C)c2cnc(Nc3ccc(C(=O)NC4CCN(C)CC4)cc3OC)nc2N1C1CCCC1`
0.022

Also `O=C(CCCCCCC(=O)Nc1ccccc1)NO` ?
-0.03

Another compound: `CC(C)C[C@@H](C=O)NC(=O)[C@H](CC(C)C)NC(=O)[C@H](CC(C)C)NC(=O)OCc1ccccc1`
-0.027

Now consider `CN(C)CC(=O)Nc1ccc2[nH]c(=O)c3ccccc3c2c1` and answer again.
-0.048

Again, but for `O=C(Nc1cccc(Nc2ncc(Br)c(NCCc3cnc[nH]3)n2)c1)N1CCCC1`
-0.007

---

# experimental system: ZFP91 (UniProt Q96JP5)
# Sequence (Q96JP5 whole entry, looked up): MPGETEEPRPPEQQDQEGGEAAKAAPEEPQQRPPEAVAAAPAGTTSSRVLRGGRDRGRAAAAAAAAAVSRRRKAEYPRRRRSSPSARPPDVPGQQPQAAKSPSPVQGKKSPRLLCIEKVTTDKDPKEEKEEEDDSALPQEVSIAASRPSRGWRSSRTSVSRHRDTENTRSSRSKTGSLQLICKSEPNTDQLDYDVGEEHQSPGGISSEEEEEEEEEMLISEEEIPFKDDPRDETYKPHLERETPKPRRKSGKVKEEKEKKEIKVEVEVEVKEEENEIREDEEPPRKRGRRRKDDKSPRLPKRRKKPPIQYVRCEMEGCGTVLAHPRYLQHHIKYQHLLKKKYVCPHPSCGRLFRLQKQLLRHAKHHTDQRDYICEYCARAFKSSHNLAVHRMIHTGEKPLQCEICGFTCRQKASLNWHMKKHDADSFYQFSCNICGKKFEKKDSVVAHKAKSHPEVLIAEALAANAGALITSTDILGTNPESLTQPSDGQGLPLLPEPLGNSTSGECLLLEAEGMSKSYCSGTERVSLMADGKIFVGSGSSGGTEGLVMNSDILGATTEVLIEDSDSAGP
# assay info: log2 fold change, soluble protein after heating vs DMSO (PISA); higher = thermal stabilisation; K562 cells, 10 uM, 30 min; active = over 0.2 and 3.5 SD of the protein, either way, in both replicates (recomputed)
The full data set covers some 7,900 targets. This sample favours those with a hit. About 0.6% of all pairs of compound and target were hits.
Returns yes (1) if the recorded log2 fold change is greater than or equal to 0.01, and no (0) otherwise.

Could you tell me if the measured log2 fold change of `Cc1cc(SCc2sc(-c3ccc(C(F)(F)F)cc3)nc2C)ccc1OCC(=O)O` reaches 0.01 or more?
yes (1)

Now this one: `CC(C)c1cnn2c(NCc3ccccc3)cc(NCCCCCCN)nc12`
no (0)

Same again, this time with `CCn1cc(-c2ccnc3[nH]c(-c4cccc(CN(C)C)c4)cc23)c(-c2ccc(NC(=O)N(C)C)cc2)n1`
yes (1)

`NC(=O)c1cnc(N[C@@H]2CCCC[C@@H]2N)nc1Nc1cccc(-n2nccn2)c1` , same question.
no (0)

---

Please respond with reported log2 fold change for every item in the list.
# experimental system: ZNF622 (UniProt Q969S3)
# Sequence (Q969S3 whole entry, looked up): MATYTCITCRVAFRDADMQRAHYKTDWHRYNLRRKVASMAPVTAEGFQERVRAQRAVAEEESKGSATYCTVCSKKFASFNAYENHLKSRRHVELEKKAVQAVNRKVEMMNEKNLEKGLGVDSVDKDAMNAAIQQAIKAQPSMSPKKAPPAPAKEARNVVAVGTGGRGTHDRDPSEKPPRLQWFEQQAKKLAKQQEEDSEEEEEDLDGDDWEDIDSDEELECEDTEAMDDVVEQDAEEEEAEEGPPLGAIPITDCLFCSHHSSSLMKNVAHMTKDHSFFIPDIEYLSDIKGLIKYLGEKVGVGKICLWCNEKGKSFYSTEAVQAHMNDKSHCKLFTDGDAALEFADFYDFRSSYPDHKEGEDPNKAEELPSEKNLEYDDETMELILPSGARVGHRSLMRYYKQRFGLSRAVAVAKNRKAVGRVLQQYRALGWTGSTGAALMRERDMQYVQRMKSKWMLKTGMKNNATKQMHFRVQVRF
# assay info: log2 fold change, soluble protein after heating vs DMSO (PISA); higher = thermal stabilisation; K562 cells, 10 uM, 30 min; active = over 0.2 and 3.5 SD of the protein, either way, in both replicates (recomputed)
About 7,900 targets were measured; listed, in parts, are those with a hit and a random draw of the rest. About 0.6% of all pairs of compound and target were hits.
Please give only the number in your answer, with no unit.

For `CC[C@H](C)[C@H](NC(=O)[C@H]([C@@H](C)CC)N(C)C(C)=O)C(=O)N[C@H](C(=O)N[C@@H](CC(C)C)C(=O)[C@@]1(C)CO1)[C@@H](C)O` , what is its reported log2 fold change?
0.056

Same read-out for CC1=C(C(=O)Nc2cc3cn[nH]c3cc2F)C(c2ccc(C(F)(F)F)cc2)CC(=O)N1 (stereo not drawn) ?
-0.083

What do you have for `CCCCN(Cc1ccc(C(=O)NO)cc1)C(=O)Nc1ccccc1` ?
-0.086

Consider next the molecule `CC(C)(O)CC(=O)NCCn1ccc2ncnc(Nc3ccc(Oc4cccc(C(F)(F)F)c4)c(Cl)c3)c21` in the same way.
-0.078

Try the molecule `Cc1ncc(-c2ccnc(Nc3ccc(S(C)(=O)=O)cc3)n2)n1C(C)C`
0.013

Further, for Cn1c2cc(S(C)=O)sc2c2cnn(Cc3cccc(N)c3)c(=O)c21 (stereo not drawn) ?
-0.061

Another molecule to look at: `COc1cc2nc(-c3cc(F)ccc3O)nc(N[C@@H]3CNC[C@H]3C(C)(C)O)c2cc1OC`
0.028

Can you handle `Cc1ccc(Sc2cncc3sc(C(N)=O)cc23)cc1` next?
-0.022

---

# experimental system: ZBTB43 (UniProt O43298)
# Sequence (O43298 whole entry, looked up): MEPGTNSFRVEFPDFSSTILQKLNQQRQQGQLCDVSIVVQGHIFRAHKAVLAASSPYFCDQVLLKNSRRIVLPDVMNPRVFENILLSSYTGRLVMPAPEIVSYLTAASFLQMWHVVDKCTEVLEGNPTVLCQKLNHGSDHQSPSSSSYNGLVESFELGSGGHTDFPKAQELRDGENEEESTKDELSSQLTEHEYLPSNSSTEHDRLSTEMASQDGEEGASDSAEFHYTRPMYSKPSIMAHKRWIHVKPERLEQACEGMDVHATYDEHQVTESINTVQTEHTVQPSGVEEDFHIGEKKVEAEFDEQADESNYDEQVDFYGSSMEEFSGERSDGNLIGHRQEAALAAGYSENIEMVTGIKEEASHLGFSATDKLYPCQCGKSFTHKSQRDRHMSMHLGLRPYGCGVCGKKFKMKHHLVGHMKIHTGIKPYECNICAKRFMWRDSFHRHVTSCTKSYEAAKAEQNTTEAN
# assay info: log2 fold change, soluble protein after heating vs DMSO (PISA); higher = thermal stabilisation; K562 cells, 10 uM, 30 min; active = over 0.2 and 3.5 SD of the protein, either way, in both replicates (recomputed)
About 7,900 targets were measured; listed, in parts, are those with a hit and a random draw of the rest. About 0.6% of all pairs of compound and target were hits.
observable: log2 fold change
API doc: respond with a numeric literal and nothing else, no unit.

Given the molecule `CC(C)N(C[C@H]1O[C@@H](n2cnc3c(N)ncnc32)[C@H](O)[C@@H]1O)[C@H]1C[C@@H](CCc2nc3cc(C(C)(C)C)ccc3[nH]2)C1` , what is its reported log2 fold change?
-0.05

Could you do the same for `CC[C@H](C)[C@H](NC(=O)[C@H]([C@@H](C)CC)N(C)C(C)=O)C(=O)N[C@H](C(=O)N[C@@H](CC(C)C)C(=O)[C@@]1(C)CO1)[C@@H](C)O` , please?
-0.054

Try the molecule `CC(C)(C)Cn1c(N)nc2ccc(-c3[nH]c(C(C)(C)C)nc3-c3ccc(F)cc3)nc21`
0.012

Request: `C#Cc1cccc(Nc2ncnc3cc(OCCOC)c(OCCOC)cc23)c1`
0.081

Same question, `Cn1cc(-c2ccc3c(c2)CCN3C(=O)Cc2cccc(C(F)(F)F)c2)c2c(N)ncnc21` this time
0.023

Next entry: `Cc1cc(Nc2cc(N3CCN(C)CC3)nc(Sc3ccc(NC(=O)C4CC4)cc3)n2)n[nH]1`
0.063

Now give it for `NC1(Cc2ccc(Cl)cc2)CCN(c2ncnc3[nH]ccc23)CC1` too.
-0.053

Another molecule to check: `O=C1NC(=O)/C(=C\c2ccc3nccnc3c2)S1`
-0.054

Moving on to `O=C(Nc1cccc(Nc2ncc(Br)c(NCCc3cnc[nH]3)n2)c1)N1CCCC1`
-0.052

Then what about the molecule `CS(=O)(=O)c1ccc(-c2cnc(N)c(C(=O)Nc3ccccc3)n2)cc1` ?
0.021

Cool, now `COc1ccc(Cn2ccc3ccc(C(=O)NO)cc32)cc1`
0.094

Now this one: `COc1cc2ncnc(Nc3ccc(F)c(Cl)c3)c2cc1OCCCN1CCOCC1`
0.025

# repeat for `Cc1cccc(-c2[nH]c(C(C)(C)C)nc2-c2ccc3nccnc3c2)n1`
-0.04

And then `CCn1cc(-c2ccnc3[nH]c(-c4cccc(CN(C)C)c4)cc23)c(-c2ccc(NC(=O)N(C)C)cc2)n1` , what is it?
0.028

One more molecule: `Fc1ccc(Cl)cc1-c1nc(Nc2ccncc2)c2nccnc2n1`
-0.194

Same question, `CC(C)c1cnn2c(NCc3ccccc3)cc(NCCCCCCN)nc12` this time
0.138

Entry to check: `C[C@@H](Oc1cc(-c2cnn(C3CCNCC3)c2)cnc1N)c1c(Cl)ccc(F)c1Cl`
-0.077

---

# experimental system: ZC3H18 (UniProt Q86VM9)
# Sequence (Q86VM9 whole entry, looked up): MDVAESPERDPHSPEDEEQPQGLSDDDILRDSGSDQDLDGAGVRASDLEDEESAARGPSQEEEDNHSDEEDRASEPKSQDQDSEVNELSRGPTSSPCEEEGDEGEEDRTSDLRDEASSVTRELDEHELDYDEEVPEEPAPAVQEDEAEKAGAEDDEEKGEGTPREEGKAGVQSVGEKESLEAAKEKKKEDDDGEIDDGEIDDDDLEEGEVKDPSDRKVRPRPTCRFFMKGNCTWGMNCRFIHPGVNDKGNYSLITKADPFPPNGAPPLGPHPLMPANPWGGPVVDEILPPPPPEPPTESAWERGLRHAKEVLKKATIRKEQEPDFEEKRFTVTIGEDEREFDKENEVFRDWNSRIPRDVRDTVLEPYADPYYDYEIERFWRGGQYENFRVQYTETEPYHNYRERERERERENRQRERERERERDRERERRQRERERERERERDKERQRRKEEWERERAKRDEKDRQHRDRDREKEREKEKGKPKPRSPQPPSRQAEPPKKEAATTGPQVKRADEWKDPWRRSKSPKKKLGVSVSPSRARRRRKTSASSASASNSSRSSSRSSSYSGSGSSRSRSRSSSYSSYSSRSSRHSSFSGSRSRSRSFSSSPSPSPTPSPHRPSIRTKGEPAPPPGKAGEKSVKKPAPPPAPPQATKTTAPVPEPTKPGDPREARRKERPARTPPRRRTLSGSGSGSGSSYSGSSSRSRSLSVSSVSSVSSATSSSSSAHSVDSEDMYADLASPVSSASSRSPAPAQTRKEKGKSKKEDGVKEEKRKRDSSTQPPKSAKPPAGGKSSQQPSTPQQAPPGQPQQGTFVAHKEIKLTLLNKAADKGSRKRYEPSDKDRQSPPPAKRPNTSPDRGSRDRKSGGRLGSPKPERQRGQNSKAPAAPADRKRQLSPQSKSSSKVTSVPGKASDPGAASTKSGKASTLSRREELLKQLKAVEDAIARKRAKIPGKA
# assay info: log2 fold change, soluble protein after heating vs DMSO (PISA); higher = thermal stabilisation; K562 cells, 10 uM, 30 min; active = over 0.2 and 3.5 SD of the protein, either way, in both replicates (recomputed)
The full data set covers some 7,900 targets. This sample favours those with a hit. About 0.6% of all pairs of compound and target were hits.
Outcome: fulfilled for log2 fold change of at least 0.04; not fulfilled for anything lower.

# check: log2 fold change of `CNC(=O)c1ccccc1Nc1nc(Nc2ccc(N3CCOCC3)cc2OC)ncc1Cl` is greater than or equal to 0.04
not fulfilled

Try this compound next: `O=C1NC(=O)/C(=C\c2ccc3nccnc3c2)S1`
not fulfilled

Another compound to check: Cn1cncc1[C@@](N)(c1ccc(Cl)cc1)c1ccc2c(c1)c(-c1cccc(Cl)c1)cc(=O)n2C [tipifarnib]
fulfilled

Thanks! And `Cc1ccc(NC(=O)c2cccc(C(C)(C)C#N)c2)cc1Nc1ccc2ncn(C)c(=O)c2c1` ?
not fulfilled

Also check CON(C)C(=O)N1N=C(c2cc(F)ccc2F)S[C@@]1(CCCN)c1ccccc1 [filanesib]
fulfilled

Another compound to look at: FC(F)(F)c1ccc(/C=C/c2nc(COc3ccc(CCCCn4ccnn4)cc3)co2)cc1 [mubritinib]
not fulfilled

What do you have for COC(=O)N[C@@H](C)CNc1nccc(-c2cn(C(C)C)nc2-c2cc(Cl)cc(NS(C)(=O)=O)c2F)n1 [encorafenib] ?
not fulfilled

Entry `Cc1ccc(Sc2cncc3sc(C(N)=O)cc23)cc1` please
not fulfilled

---

Provide the recorded log2 fold change for the entries that follow.
# experimental system: YPEL5 (UniProt P62699)
# Sequence (P62699 whole entry, looked up): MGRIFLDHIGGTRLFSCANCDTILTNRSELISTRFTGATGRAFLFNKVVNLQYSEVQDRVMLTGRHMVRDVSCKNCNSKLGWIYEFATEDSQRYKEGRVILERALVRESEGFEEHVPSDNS
# assay info: log2 fold change, soluble protein after heating vs DMSO (PISA); higher = thermal stabilisation; K562 cells, 10 uM, 30 min; active = over 0.2 and 3.5 SD of the protein, either way, in both replicates (recomputed)
Targets with a hit are over-represented here; the source holds about 7,900 in all. About 0.6% of all pairs of compound and target were hits.
No unit in the answer, only the number.

Bench note: what log2 fold change did `Cc1nc(Nc2n[nH]c3c2CN(C(=O)N[C@H](CN(C)C)c2ccccc2)C3(C)C)c2sccc2n1` show?
-0.118

Could you do the same for `NC(=O)c1ccc2nc(-c3ccc(Oc4ccc(Cl)cc4)cc3)[nH]c2c1` , please?
-0.021

Next entry: `CCN(CCCOc1ccc2c(Nc3cc(CC(=O)Nc4cccc(F)c4)[nH]n3)ncnc2c1)CCOP(=O)(O)O`
0.121

Param item: `CNc1nc(-c2ccc3c(N)n[nH]c3c2)cc(N2C[C@@H](C(=O)NC3CCCCC3)CC[C@H]2C)n1`
-0.06
